# Tested System: human VR1 (Homo sapiens, UniProt Q8NER1)
# Construct: expressed in transfected cells
# Sequence (Q8NER1 whole entry): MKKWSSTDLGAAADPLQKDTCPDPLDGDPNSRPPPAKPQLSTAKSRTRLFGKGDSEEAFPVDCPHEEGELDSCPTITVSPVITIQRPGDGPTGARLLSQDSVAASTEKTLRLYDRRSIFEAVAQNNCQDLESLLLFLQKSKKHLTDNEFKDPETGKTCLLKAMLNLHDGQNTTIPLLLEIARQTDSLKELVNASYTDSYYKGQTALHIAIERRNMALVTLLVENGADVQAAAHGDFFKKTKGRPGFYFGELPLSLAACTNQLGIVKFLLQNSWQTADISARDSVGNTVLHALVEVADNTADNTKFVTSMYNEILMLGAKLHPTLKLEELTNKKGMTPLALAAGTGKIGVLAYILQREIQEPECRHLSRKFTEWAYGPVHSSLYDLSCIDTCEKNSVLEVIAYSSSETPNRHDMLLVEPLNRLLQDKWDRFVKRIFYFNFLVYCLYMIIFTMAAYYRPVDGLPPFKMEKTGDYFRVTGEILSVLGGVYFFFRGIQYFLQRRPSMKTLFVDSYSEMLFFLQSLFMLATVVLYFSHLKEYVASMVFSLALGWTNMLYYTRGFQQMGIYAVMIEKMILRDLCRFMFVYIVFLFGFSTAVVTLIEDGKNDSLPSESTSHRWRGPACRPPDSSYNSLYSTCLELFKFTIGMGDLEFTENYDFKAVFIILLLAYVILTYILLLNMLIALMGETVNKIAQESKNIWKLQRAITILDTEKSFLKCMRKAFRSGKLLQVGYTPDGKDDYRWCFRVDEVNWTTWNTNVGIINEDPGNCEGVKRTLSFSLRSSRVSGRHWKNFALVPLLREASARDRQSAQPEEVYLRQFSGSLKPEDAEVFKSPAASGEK
# Assay Summary: VR1 pH-based assay in HEK293-EcR cells (FLIPR, Fluo-4)
# Format: cell-based
# Recorded Conditions: activation by agonist buffer giving pH 5.5, human VR1 in PonA-induced HEK293-EcR cells, 50 pM to 3 μM, n+3
Experimental Readout: IC50 (nM)
Express it in nM; write the number only.

Qu. Request the reported IC50 associated with C[C@@H]1CN(c2ncccc2Cl)CCN1/C(=N\C#N)NCCC1=CCCCC1
Ans. 197

----------
# Tested System: human VR1 (Homo sapiens)
# Construct: expressed in transfected cells
# Assay Summary: VR1 capsaicin-based assay in HEK293-EcR cells (FLIPR, Fluo-4)
# Type: cell-based
# Recorded Conditions: capsaicin-based assay; human VR1 activated by capsaicin (400 nM) in PonA-induced HEK293-EcR cells; 50 pM to 3 μM; n+3
Experimental Readout: IC50 (nM)
Dear colleague, please return just the value in nM, with no unit written.

Qu. human VR1 (Homo sapiens) / IC50 / C[C@@H]1CN(c2ncccc2Cl)CCN1/C(=N\C#N)NCCC1=CCCCC1 : value?
Ans. 59.4
